- testSmiles: "CCc1c(C(=O)NC2CCCCC2)nc(-c2ccc(Cl)cc2Cl)n1-c1ccc(Br)cc1"
  melting point: "> 135 °C"
- testSmiles: "CSc1c(C(=O)NN2CCCCC2)nc(-c2ccc(Cl)cc2Cl)n1-c1ccc(Cl)cc1"
  melting point: "170 °C (dec.)"
- testSmiles: "COc1cc(Cl)ccc1-c1nc(C(=O)NC2CCCCC2)cn1-c1ccc(Cl)cc1"
  melting point: "177 to 179 °C"
- testSmiles: "Cc1c(C(=O)Nc2cccc(C(F)(F)F)c2)nc(-c2ccc(Cl)cc2Cl)n1-c1ccc(Cl)cc1"
  melting point: "177 °C"
